target-desc: the molecule itself
assay-overview: size-exclusion chromatography, self-association (homodimer)
attribute-measured: binding result

protein="D_3_114_4 (designed binder, Designed homodimer subunit, after TEV cleavage) SGSGSSDEEFKFLATMAKMAITAAERAAGTDPELQEMVALIKKELEQAERTFRNGDKSEAQRQLWFVWVAALAVAAVALAANAAGTDPELQEMVDRILKQLKEAIRTFQNGDQEEAETQLRFVLMAAAAVAVVALARLWAGTDPELQEMVKQILEELKQAIETFARGDKEKALTQLLFVLWAAHAVLWIAIAANLAGTDPRLQQQVKEILEKLKEAIETFQKGDEEQAFRQLAEVLAEAVLVALRARKTN" attribute_measured="binding result" value=binds
protein="JC (designed binder, Designed homodimer subunit, after TEV cleavage) SGSTEKLKKVLERVRELAERAKESTSPEEALIIALLVSSLAIAAVMLDPSEEASTAVKIAIKIAEEVAKRVSDSQLSASIALSIASLALVAAEAAGDEELSKLALRLAKLAAELAKDALRIAEERGNAIDAAIAVGIVVMVAAILLQLAKLLGSEEALKEALEVAEEAARLAKRVLELAERVGDPQVALAAVGHVQMVAILLAQIARESGSEEAKERAERVARESMELAERVLELMRREGKW" attribute_measured="binding result" value=binds
protein="tj79C2-H65C (designed binder, Designed homodimer subunit, after TEV cleavage) SGSGSREDELIARYLILLAELAAERADIAAERTGDPRVRELARELKRLAQEAAEEVKRDPSSSDVFMALHLIVLAIQIAVKALEAAERTGDPEVRELARELVRLAVEAAEEVQRNPSSSDVFLALLLIVTAIMLAVEALEAAERTGDPEVRELARELVRLAVEAAEEVQRNPSSKEVLMALLLILIAILEAVLSLLRAERSGDPEKREKARERVREAVERAEEVQRDPSGW" attribute_measured="binding result" value=binds

Hello, the source for this data is patent US20250326867A1, in case you need it.
